The origin of these recorded values is the supplement of paper PMC10567573.

B1: CCND2 (parent)
chain: YFKCVQKDIQPYMRRMVATWMLEV

Variants of: B1
Assay: protein stability index of a GFP-peptide fusion (GPS, HEK-293T) (PSI 1-6); higher = more stable;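 also: lentivirally expressed fusions sorted by FACS into six bins by GFP to DsRed ratio, PSI derived from sequencing read proportions per bin multiplied by bin number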
Conditions: c terminus: a fixed tail appended
test_readout: protein stability index

Look at this variant and give its reported protein stability index. YFKRVQKDIQPYMRRMVATWMLEV
2.25

Look at this variant and give its reported protein stability index. YFKCVQKDIQPYARRMVATWMLEV
3.23

Look at this variant and give its reported protein stability index. YFKCVQKDIQPYMRRMVFTWMLEV
3.1

Look at this variant and give its reported protein stability index. YFKCVQKDIQPYMRSMVATWMLEV
2.55

Look at this variant and give its reported protein stability index. YFKCVQKDIQPYMRRMVATHMLEV
2.88

Look at this variant and give its reported protein stability index. YFKCVQKDIQPYMRRTVATWMLEV
3.51

Look at this variant and give its reported protein stability index. YFKCVQKDIQPYMRRMVATWMLEF
3.08

Look at this variant and give its reported protein stability index. YFKCIQKDIQPYMRRMVATWMLEV
2.92

Look at this variant and give its reported protein stability index. YIKCVQKDIQPYMRRMVATWMLEV
2.9

Look at this variant and give its reported protein stability index. YFKCVQKDIQPYMRRMVATWHLEV
2.08

Look at this variant and give its reported protein stability index. YFKCVQKDIQPYMRRMVATWMLEY
2.06

Look at this variant and give its reported protein stability index. YFKCVQKDIQPLMRRMVATWMLEV
3.19

Look at this variant and give its reported protein stability index. YFKCVQKDDQPYMRRMVATWMLEV
2.71

Look at this variant and give its reported protein stability index. YFKCVQKDIQPYMRRMVATWMAEV
3.01

Look at this variant and give its reported protein stability index. YMKCVQKDIQPYMRRMVATWMLEV
1.89

Look at this variant and give its reported protein stability index. YFKCVQKDIQPYMRRMVATCMLEV
3.44

Look at this variant and give its reported protein stability index. YFKCVQKDIQPYMRRMSATWMLEV
1.77

Look at this variant and give its reported protein stability index. YFKCVQKDIQPYMRRMNATWMLEV
2.15

Look at this variant and give its reported protein stability index. YFKCVQKDIHPYMRRMVATWMLEV
2.84

Look at this variant and give its reported protein stability index. YFKCVQKDIQPYMRRMVATWMDEV
1.89

Look at this variant and give its reported protein stability index. RFKCVQKDIQPYMRRMVATWMLEV
1.87

Look at this variant and give its reported protein stability index. YFKCVQKDIQPYMRCMVATWMLEV
3.12

Look at this variant and give its reported protein stability index. YFKCVQKDIQPYMRRMVATWSLEV
3.49

Look at this variant and give its reported protein stability index. YFKCVQKDIQPYMRRMVATWMLEH
1.94

Look at this variant and give its reported protein stability index. YFKCVPKDIQPYMRRMVATWMLEV
2.49

Look at this variant and give its reported protein stability index. YFKCVQKDIQPYMRRMVATWMTEV
3

Look at this variant and give its reported protein stability index. YFKCVQKDIQPYMNRMVATWMLEV
2.06

Look at this variant and give its reported protein stability index. YFKCVQKDIQPYMRRYVATWMLEV
2.41

Look at this variant and give its reported protein stability index. YFKCVQKDIQPYMRRMVKTWMLEV
2.69

Look at this variant and give its reported protein stability index. YFKCVQKDIQPYVRRMVATWMLEV
1.66

Look at this variant and give its reported protein stability index. YWKCVQKDIQPYMRRMVATWMLEV
2.75

Look at this variant and give its reported protein stability index. YFKCVQKDIQPYMRRMVYTWMLEV
4.28

Look at this variant and give its reported protein stability index. YFKCVQKDIQPYMRRMVATWMLMV
2.9

Look at this variant and give its reported protein stability index. YFKCVQKDIQPYMLRMVATWMLEV
4.22

Look at this variant and give its reported protein stability index. YFKCVVKDIQPYMRRMVATWMLEV
1.79

Look at this variant and give its reported protein stability index. YFKCVQKDIQPYMRRMVATWMLPV
3.09

Look at this variant and give its reported protein stability index. YFKCVQKDIQPYMRWMVATWMLEV
3.97

Look at this variant and give its reported protein stability index. YFKCVQKDIQPYMRRMVATWMLVV
2.73

Look at this variant and give its reported protein stability index. YFKCVQKDIQPYMRRMAATWMLEV
1.55

Look at this variant and give its reported protein stability index. YFICVQKDIQPYMRRMVATWMLEV
2.78

Look at this variant and give its reported protein stability index. YFKCVQKDIQPYMRRMEATWMLEV
2.49

Look at this variant and give its reported protein stability index. YFKCDQKDIQPYMRRMVATWMLEV
2.41

Look at this variant and give its reported protein stability index. YFKCVQKDIQPYMRRMWATWMLEV
4.01

Look at this variant and give its reported protein stability index. YFKCVQKDIQPYMRRMVATWMLDV
2.08

Look at this variant and give its reported protein stability index. YFKCVQKDFQPYMRRMVATWMLEV
2.47

Look at this variant and give its reported protein stability index. YFKCVQKDIQPYGRRMVATWMLEV
2.58

Look at this variant and give its reported protein stability index. YFKCVQKPIQPYMRRMVATWMLEV
3.13

Look at this variant and give its reported protein stability index. SFKCVQKDIQPYMRRMVATWMLEV
2.85

Look at this variant and give its reported protein stability index. YFKCVQKDIQPYMRRMVATWGLEV
2.52

Look at this variant and give its reported protein stability index. YFKCVQKDIQPYMRYMVATWMLEV
2.81

Look at this variant and give its reported protein stability index. YFKCVQKDIQPYMRRMVATWMLET
1.9

Look at this variant and give its reported protein stability index. YFKCVQKDIQMYMRRMVATWMLEV
3.69

Look at this variant and give its reported protein stability index. YFKCVQKDIQPYMRNMVATWMLEV
3.95

Look at this variant and give its reported protein stability index. YFKCVDKDIQPYMRRMVATWMLEV
2.65

Look at this variant and give its reported protein stability index. YFKCVQKDIQPYMRRMVATWVLEV
2.55

Look at this variant and give its reported protein stability index. YFKCVQKDIQPYMRRMVATWRLEV
1.86

Look at this variant and give its reported protein stability index. YFKCVQKDIQPYMRRMVDTWMLEV
2.37

Look at this variant and give its reported protein stability index. YFKQVQKDIQPYMRRMVATWMLEV
1.44

Look at this variant and give its reported protein stability index. YFKCVQKDIQPYMREMVATWMLEV
3.42

Look at this variant and give its reported protein stability index. YFKCVQKDIQPYMRRMVATWMLWV
3.1

Look at this variant and give its reported protein stability index. YFKWVQKDIQPYMRRMVATWMLEV
3.23

Look at this variant and give its reported protein stability index. YFKCVQKDIQPYMRRMVATWMLEC
1.93

Look at this variant and give its reported protein stability index. YFKCVQKKIQPYMRRMVATWMLEV
2.94
